// reported protein stability index per item
B1: ANKRD9 (parent)
chain: VGAAGSARQELLGDRPRWQRLLGE

# Variants of: B1
# protocol.notes: protein stability index of a GFP-peptide fusion (GPS, HEK-293T) (PSI 1-6); higher = more stable;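 note: lentivirally expressed fusions sorted by FACS into six bins by GFP to DsRed ratio, PSI derived from sequencing read proportions per bin multiplied by bin number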
# condition.info: c terminus: a fixed tail appended
Please give the numeric answer without any surrounding text.

Examples from the recorded data:
VGAAGSARQELLGDNPRWQRLLGE [R15N] : 3.6
VGAAGSARQELLGDRPRWNRLLGE [Q19N] : 3.94

Exam item: For the variant shown here, VGAAGAARQELLGDRPRWQRLLGE [S6A] , give the reported protein stability index.
Marked response: 2.6

Exam item: Now the variant VGAASSARQELLGDRPRWQRLLGE [G5S]
Marked response: 4

Exam item: And the next one, VGAAGSARQELLGDRPRVQRLLGE [W18V] ?
Marked response: 4.4
